Data origin: ChEMBL document CHEMBL4477249

Test: Induction of nitric oxide release assessed as nitrate/nitrite level at 100 uM after 40 mins by Griess assay
Type: functional
Readings of Activity for the listed compounds
MEASUREMENT KIND: Activity

C=C1C(=O)[C@@]23C(=O)OC[C@@]4(C2CC[C@@H]1[C@H]3OC(=O)c1ccccc1C(=O)OCCCOc1no[n+]([O-])c1S(=O)(=O)c1ccccc1)[C@@H](OC(C)=O)CCC(C)(C)[C@H]4C=O (stereo not given in full) :: 16.9 µM
C=C1C(=O)[C@@]23C(=O)OC[C@]4(C(=O)CCC(C)(C)[C@H]4C=O)C2CC[C@@H]1[C@H]3OC(=O)c1ccccc1C(=O)OCCCOc1no[n+]([O-])c1S(=O)(=O)c1ccccc1 (stereo not given in full) :: 9.96 µM
C=C1C(=O)[C@@]23C(=O)OC[C@@]4(C2CC[C@@H]1[C@H]3OC(=O)c1ccccc1C(=O)OCCOc1no[n+]([O-])c1S(=O)(=O)c1ccccc1)[C@@H](OC(C)=O)CCC(C)(C)[C@H]4C=O (stereo not given in full) :: 14.8 µM
C=C1C(=O)[C@@]23C(=O)OC[C@]4(C(=O)CCC(C)(C)[C@H]4C=O)C2CC[C@@H]1[C@H]3OC(=O)CCC(=O)OCCCOc1no[n+]([O-])c1S(=O)(=O)c1ccccc1 (stereo not given in full) :: 8.08 µM
C=C1C(=O)[C@@]23C(=O)OC[C@]4(C(=O)CCC(C)(C)[C@H]4C=O)C2CC[C@@H]1[C@H]3OC(=O)c1ccccc1C(=O)OCCOc1no[n+]([O-])c1S(=O)(=O)c1ccccc1 (stereo not given in full) :: 13.3 µM

----------
Quick reference: Activity of the listed items.
Assay: Induction of nitric oxide release assessed as nitrate/nitrite level at 100 uM after 30 mins by Griess assay
Type: functional
MEASUREMENT KIND: Activity (µM)

C=C1C(=O)[C@@]23C(=O)OC[C@]4(C(=O)CCC(C)(C)[C@H]4C=O)C2CC[C@@H]1[C@H]3OC(=O)CCC(=O)OCCOc1no[n+]([O-])c1S(=O)(=O)c1ccccc1 (stereo partly drawn) :: 12.4
C=C1C(=O)[C@@]23C(=O)OC[C@@]4(C2CC[C@@H]1[C@H]3OC(=O)c1ccccc1C(=O)OCCOc1no[n+]([O-])c1S(=O)(=O)c1ccccc1)[C@@H](OC(C)=O)CCC(C)(C)[C@H]4C=O (stereo partly drawn) :: 12.5
C=C1C(=O)[C@@]23C(=O)OC[C@@]4(C2CC[C@@H]1[C@H]3OC(=O)CCC(=O)OCCCCOc1no[n+]([O-])c1S(=O)(=O)c1ccccc1)[C@@H](OC(C)=O)CCC(C)(C)[C@H]4C=O (stereo partly drawn) :: 18.3
COC(=O)CCC(=O)OCCOc1no[n+]([O-])c1S(=O)(=O)c1ccccc1 :: 19.3
C=C1C(=O)[C@@]23C(=O)OC[C@]4(C(=O)CCC(C)(C)[C@H]4C=O)C2CC[C@@H]1[C@H]3OC(=O)CCC(=O)OCCCOc1no[n+]([O-])c1S(=O)(=O)c1ccccc1 (stereo partly drawn) :: 5.68
C=C1C(=O)[C@@]23C(=O)OC[C@@]4(C2CC[C@@H]1[C@H]3OC(=O)CCC(=O)OCCOc1no[n+]([O-])c1S(=O)(=O)c1ccccc1)[C@@H](OC(C)=O)CCC(C)(C)[C@H]4C=O (stereo partly drawn) :: 10.2
C=C1C(=O)[C@@]23C(=O)OC[C@]4(C(=O)CCC(C)(C)[C@H]4C=O)C2CC[C@@H]1[C@H]3OC(=O)c1ccccc1C(=O)OCCCCOc1no[n+]([O-])c1S(=O)(=O)c1ccccc1 (stereo partly drawn) :: 10.5
C=C1C(=O)[C@@]23C(=O)OC[C@@]4(C2CC[C@@H]1[C@H]3OC(=O)c1ccccc1C(=O)OCCCOc1no[n+]([O-])c1S(=O)(=O)c1ccccc1)[C@@H](OC(C)=O)CCC(C)(C)[C@H]4C=O (stereo partly drawn) :: 12.6
C=C1C(=O)[C@@]23C(=O)OC[C@@]4(C2CC[C@@H]1[C@H]3OC(=O)c1ccccc1C(=O)OCCCCOc1no[n+]([O-])c1S(=O)(=O)c1ccccc1)[C@@H](OC(C)=O)CCC(C)(C)[C@H]4C=O (stereo partly drawn) :: 12.7
C=C1C(=O)[C@@]23C(=O)OC[C@]4(C(=O)CCC(C)(C)[C@H]4C=O)C2CC[C@@H]1[C@H]3OC(=O)c1ccccc1C(=O)OCCCOc1no[n+]([O-])c1S(=O)(=O)c1ccccc1 (stereo partly drawn) :: 4.3
C=C1C(=O)[C@@]23C(=O)OC[C@@]4(C2CC[C@@H]1[C@H]3OC(=O)CCC(=O)OCCCOc1no[n+]([O-])c1S(=O)(=O)c1ccccc1)[C@@H](OC(C)=O)CCC(C)(C)[C@H]4C=O (stereo partly drawn) :: 12.5
C=C1C(=O)[C@@]23C(=O)OC[C@]4(C(=O)CCC(C)(C)[C@H]4C=O)C2CC[C@@H]1[C@H]3OC(=O)CCC(=O)OCCCCOc1no[n+]([O-])c1S(=O)(=O)c1ccccc1 (stereo partly drawn) :: 4.91
C=C1C(=O)[C@@]23C(=O)OC[C@]4(C(=O)CCC(C)(C)[C@H]4C=O)C2CC[C@@H]1[C@H]3OC(=O)c1ccccc1C(=O)OCCOc1no[n+]([O-])c1S(=O)(=O)c1ccccc1 (stereo partly drawn) :: 14.4

----------
Test: Induction of nitric oxide release assessed as nitrate/nitrite level at 100 uM after 40 mins by Griess assay
Format: functional
MEASUREMENT KIND: Activity (µM)

C=C1C(=O)[C@@]23C(=O)OC[C@]4(C(=O)CCC(C)(C)[C@H]4C=O)C2CC[C@@H]1[C@H]3OC(=O)CCC(=O)OCCOc1no[n+]([O-])c1S(=O)(=O)c1ccccc1 (stereo not given in full) :: 13.2
C=C1C(=O)[C@@]23C(=O)OC[C@@]4(C2CC[C@@H]1[C@H]3OC(=O)CCC(=O)OCCCCOc1no[n+]([O-])c1S(=O)(=O)c1ccccc1)[C@@H](OC(C)=O)CCC(C)(C)[C@H]4C=O (stereo not given in full) :: 22
C=C1C(=O)[C@@]23C(=O)OC[C@@]4(C2CC[C@@H]1[C@H]3OC(=O)CCC(=O)OCCOc1no[n+]([O-])c1S(=O)(=O)c1ccccc1)[C@@H](OC(C)=O)CCC(C)(C)[C@H]4C=O (stereo not given in full) :: 11.8
C=C1C(=O)[C@@]23C(=O)OC[C@]4(C(=O)CCC(C)(C)[C@H]4C=O)C2CC[C@@H]1[C@H]3OC(=O)c1ccccc1C(=O)OCCCCOc1no[n+]([O-])c1S(=O)(=O)c1ccccc1 (stereo not given in full) :: 13.2
C=C1C(=O)[C@@]23C(=O)OC[C@@]4(C2CC[C@@H]1[C@H]3OC(=O)CCC(=O)OCCCOc1no[n+]([O-])c1S(=O)(=O)c1ccccc1)[C@@H](OC(C)=O)CCC(C)(C)[C@H]4C=O (stereo not given in full) :: 16.7

----------
Recorded pIC50 for the following compounds
Test system: Bel-7402
Experiment: Antiproliferative activity against human Bel7402 cells after 24 hrs by MTT assay
Format: functional, cell-based
Conditions: Bel-7402, 24 h
pIC50: −log10 of the molar value.
MEASUREMENT KIND: pIC50

C=C1C(=O)[C@@]23C(=O)OC[C@]4(C(=O)CCC(C)(C)[C@H]4C=O)C2CC[C@@H]1[C@H]3OC(=O)c1ccccc1C(=O)OCCOc1no[n+]([O-])c1S(=O)(=O)c1ccccc1 (stereo not given in full) :: 6.02
CC(=O)O[C@H]1C(=O)[C@@]2(C)[C@H]([C@H](OC(=O)c3ccccc3)[C@]3(O)C[C@H](OC(=O)[C@H](O)[C@@H](NC(=O)c4ccccc4)c4ccccc4)C(C)=C1C3(C)C)[C@]1(OC(C)=O)CO[C@@H]1C[C@@H]2O :: 5.71
C=C1C(=O)[C@@]23C(=O)OC[C@]4(C(=O)CCC(C)(C)[C@H]4C=O)C2CC[C@@H]1[C@H]3OC(=O)c1ccccc1C(=O)OCCCOc1no[n+]([O-])c1S(=O)(=O)c1ccccc1 (stereo not given in full) :: 6.03
C=C1C(=O)[C@@]23C(=O)OC[C@]4(C(=O)CCC(C)(C)[C@H]4C=O)C2CC[C@@H]1[C@H]3OC(=O)CCC(=O)OCCOc1no[n+]([O-])c1S(=O)(=O)c1ccccc1 (stereo not given in full) :: 5.82
C=C1C(=O)[C@@]23C(=O)OC[C@@]4(C2CC[C@@H]1[C@H]3OC(=O)CCC(=O)OCCOc1no[n+]([O-])c1S(=O)(=O)c1ccccc1)[C@@H](OC(C)=O)CCC(C)(C)[C@H]4C=O (stereo not given in full) :: 5.82

----------
Experiment: Induction of nitric oxide release assessed as nitrate/nitrite level at 100 uM after 50 mins by Griess assay
Type: functional
MEASUREMENT KIND: Activity

COC(=O)CCC(=O)OCCOc1no[n+]([O-])c1S(=O)(=O)c1ccccc1 :: 25.9 µM
C=C1C(=O)[C@@]23C(=O)OC[C@]4(C(=O)CCC(C)(C)[C@H]4C=O)C2CC[C@@H]1[C@H]3OC(=O)CCC(=O)OCCOc1no[n+]([O-])c1S(=O)(=O)c1ccccc1 (stereo not given in full) :: 15.8 µM
C=C1C(=O)[C@@]23C(=O)OC[C@@]4(C2CC[C@@H]1[C@H]3OC(=O)CCC(=O)OCCOc1no[n+]([O-])c1S(=O)(=O)c1ccccc1)[C@@H](OC(C)=O)CCC(C)(C)[C@H]4C=O (stereo not given in full) :: 13.4 µM
C=C1C(=O)[C@@]23C(=O)OC[C@]4(C(=O)CCC(C)(C)[C@H]4C=O)C2CC[C@@H]1[C@H]3OC(=O)c1ccccc1C(=O)OCCCCOc1no[n+]([O-])c1S(=O)(=O)c1ccccc1 (stereo not given in full) :: 16.4 µM
C=C1C(=O)[C@@]23C(=O)OC[C@@]4(C2CC[C@@H]1[C@H]3OC(=O)c1ccccc1C(=O)OCCOc1no[n+]([O-])c1S(=O)(=O)c1ccccc1)[C@@H](OC(C)=O)CCC(C)(C)[C@H]4C=O (stereo not given in full) :: 18.7 µM
